target: T1, human MSLN-hFc protein (Acro, Cat. No. MSN-H5253) (human, UniProt Q13421 296-580); test: ELISA on coated antigen, antibody 10 nM
T1 construct: the method names the coated protein as human MSLN-hFc (Acro); also called human MSLN full-length protein
T1 sequence (Q13421 other isoform, or with tags, fused parts or gaps limits assumed): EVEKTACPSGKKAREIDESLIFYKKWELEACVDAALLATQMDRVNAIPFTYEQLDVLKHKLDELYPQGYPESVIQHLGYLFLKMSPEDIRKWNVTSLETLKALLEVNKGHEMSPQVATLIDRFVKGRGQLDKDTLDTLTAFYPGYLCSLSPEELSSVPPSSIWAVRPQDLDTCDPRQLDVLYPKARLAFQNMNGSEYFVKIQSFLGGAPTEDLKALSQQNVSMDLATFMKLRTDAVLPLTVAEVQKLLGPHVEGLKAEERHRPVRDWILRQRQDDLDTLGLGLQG

{"binder": "F7.44.20-H15 (scFv, not shown: small tags and cut ends, also called S009-F7.44.20 humanized antibody VH2a + VL3) scFv: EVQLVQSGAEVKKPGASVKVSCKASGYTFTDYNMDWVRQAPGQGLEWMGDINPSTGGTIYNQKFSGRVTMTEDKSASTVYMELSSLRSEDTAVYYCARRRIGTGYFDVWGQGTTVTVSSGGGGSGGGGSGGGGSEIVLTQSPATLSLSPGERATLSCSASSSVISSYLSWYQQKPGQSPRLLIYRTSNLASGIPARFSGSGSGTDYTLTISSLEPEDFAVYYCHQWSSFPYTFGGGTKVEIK", "OD450 / OD450": 2.78}
{"binder": "F7.44.20-H3 (scFv, not shown: small tags and cut ends, also called S009-F7.44.20 humanized antibody VH1 + VL3) scFv: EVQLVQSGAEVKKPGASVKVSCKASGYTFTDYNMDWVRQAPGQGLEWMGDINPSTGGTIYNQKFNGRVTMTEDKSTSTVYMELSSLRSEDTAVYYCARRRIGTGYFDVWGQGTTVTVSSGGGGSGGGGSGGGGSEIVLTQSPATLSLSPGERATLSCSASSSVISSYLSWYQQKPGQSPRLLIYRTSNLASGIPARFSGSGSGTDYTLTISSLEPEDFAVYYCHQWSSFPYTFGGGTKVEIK", "OD450 / OD450": 2.74}
{"binder": "F7.44.20-H14 (scFv, not shown: small tags and cut ends, also called S009-F7.44.20 humanized antibody VH2a + VL2) scFv: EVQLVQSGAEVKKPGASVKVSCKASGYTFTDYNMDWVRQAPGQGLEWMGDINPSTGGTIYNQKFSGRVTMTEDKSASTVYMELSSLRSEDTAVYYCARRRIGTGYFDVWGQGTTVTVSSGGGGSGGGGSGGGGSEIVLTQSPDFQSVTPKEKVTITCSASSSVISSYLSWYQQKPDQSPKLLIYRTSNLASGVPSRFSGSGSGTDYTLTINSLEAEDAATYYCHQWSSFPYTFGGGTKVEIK", "OD450 / OD450": 2.89}
{"binder": "F7.44.20-H4 (scFv, not shown: small tags and cut ends, also called S009-F7.44.20 humanized antibody VH1 + VL4) scFv: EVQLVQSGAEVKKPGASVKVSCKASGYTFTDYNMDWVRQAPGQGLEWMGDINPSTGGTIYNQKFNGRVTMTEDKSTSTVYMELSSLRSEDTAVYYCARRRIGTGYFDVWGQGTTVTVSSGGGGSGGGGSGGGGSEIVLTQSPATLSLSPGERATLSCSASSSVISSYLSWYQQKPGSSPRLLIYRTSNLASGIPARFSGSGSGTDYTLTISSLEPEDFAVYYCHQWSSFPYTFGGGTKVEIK", "OD450 / OD450": 2.99}
{"binder": "F7.44.20-H11 (scFv, not shown: small tags and cut ends, also called S009-F7.44.20 humanized antibody VH2 + VL3) scFv: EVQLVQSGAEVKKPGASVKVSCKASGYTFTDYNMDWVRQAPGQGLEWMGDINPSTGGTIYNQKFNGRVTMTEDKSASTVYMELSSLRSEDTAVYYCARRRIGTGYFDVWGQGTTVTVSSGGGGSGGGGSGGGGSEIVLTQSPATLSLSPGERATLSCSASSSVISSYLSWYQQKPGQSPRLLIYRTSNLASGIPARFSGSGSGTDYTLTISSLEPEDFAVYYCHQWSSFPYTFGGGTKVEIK", "OD450 / OD450": 2.91}
